- Test System: human recombinant MAGL (Homo sapiens (Human))
- Sequence (Q99685 whole entry): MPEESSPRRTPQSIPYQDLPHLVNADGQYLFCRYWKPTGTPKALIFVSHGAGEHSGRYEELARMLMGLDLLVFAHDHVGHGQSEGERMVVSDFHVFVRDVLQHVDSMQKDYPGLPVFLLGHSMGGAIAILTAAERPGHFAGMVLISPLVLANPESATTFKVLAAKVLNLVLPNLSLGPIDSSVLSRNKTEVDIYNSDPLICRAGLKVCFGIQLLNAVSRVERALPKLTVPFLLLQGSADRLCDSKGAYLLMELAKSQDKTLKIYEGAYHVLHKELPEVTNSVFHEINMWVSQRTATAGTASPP
- Protocol Notes: In vitro inhibition of MAGL activity (inhibitor screening kit, 4-nitrophenylacetate)
- Condition Notes: human recombinant MAGL
Measure: IC50

Which IC50 value is on record for COc1ccc(OC(=O)NCC2CCCCC2)cc1-c1cncc(-c2ccno2)c1 ?
~10 µM

Which IC50 value is on record for O=C(NC1CCCCCC1)Oc1ccc(OC(F)(F)F)c(-c2cncc(-c3nnco3)c2)c1 ?
> 10 µM

Which IC50 value is on record for COc1ccc(OC(=O)NCc2ccccc2)cc1-c1cncc(-c2ncn[nH]2)c1 ?
> 10 µM

Which IC50 value is on record for O=C(NC1CCCCC1)Oc1cccc(-c2cncc(-c3nncs3)c2)c1 ?
> 10 µM

Which IC50 value is on record for CCCCCCCCNC(=O)Oc1cc(OC)cc(-c2cncc(-c3nnco3)c2)c1 ?
~10 µM

Which IC50 value is on record for COc1ccc(OC(=O)NCC2CCCCC2)cc1-c1cncc(-c2ccc[nH]2)c1 ?
~10 µM

Which IC50 value is on record for COc1ccc(OC(=O)NCc2ccccc2)cc1-c1cncc(-c2cccs2)c1 ?
> 10 µM

Which IC50 value is on record for COc1ccc(OC(=O)NC2CCCC2)cc1-c1cncc(-c2ncco2)c1 ?
> 10 µM

Which IC50 value is on record for CCCCCCCCNC(=O)Oc1cc(-c2cncc(-c3ncco3)c2)ccc1OC ?
~10 µM

Which IC50 value is on record for O=C(NCc1ccccc1)Oc1cccc(-c2cncc(-c3ccc[nH]3)c2)c1 ?
> 10 µM

Which IC50 value is on record for COc1ccc(OC(=O)NC2CCCCC2)cc1-c1cncc(-c2nnco2)c1 ?
~10 µM

Which IC50 value is on record for COc1ccc(OC(=O)NCc2ccccc2)cc1-c1cncc(-c2nnn[nH]2)c1 ?
> 10 µM

Which IC50 value is on record for CCCCCCCNC(=O)Oc1cccc(-c2cncc(C(=O)OCC)c2)c1 ?
1 to 10 µM

Which IC50 value is on record for O=C(NC1CCCCCC1)Oc1cccc(-c2cncc(-c3ccco3)c2)c1 ?
~10 µM

Which IC50 value is on record for COc1ccc(OC(=O)NC2CCCCCC2)cc1-c1cncc(-c2ncco2)c1 ?
> 10 µM

Which IC50 value is on record for O=C(NC1CCCCC1)Oc1ccc(OC(F)(F)F)c(-c2cncc(-c3ncco3)c2)c1 ?
> 10 µM

Which IC50 value is on record for CC1CCC(NC(=O)Oc2ccc(F)c(-c3cncc(-c4ncco4)c3)c2)CC1 (stereo not drawn) ?
> 10 µM

Which IC50 value is on record for CN(C(=O)Oc1cccc(-c2cncc(-c3nnco3)c2)c1)C1CCCCC1 ?
> 10 µM
